target: PBP2a (Staphylococcus aureus, UniProt P07944); assay: Bocillin FL competition assay, purified recombinant PBP2a
Sequence (P07944 whole entry): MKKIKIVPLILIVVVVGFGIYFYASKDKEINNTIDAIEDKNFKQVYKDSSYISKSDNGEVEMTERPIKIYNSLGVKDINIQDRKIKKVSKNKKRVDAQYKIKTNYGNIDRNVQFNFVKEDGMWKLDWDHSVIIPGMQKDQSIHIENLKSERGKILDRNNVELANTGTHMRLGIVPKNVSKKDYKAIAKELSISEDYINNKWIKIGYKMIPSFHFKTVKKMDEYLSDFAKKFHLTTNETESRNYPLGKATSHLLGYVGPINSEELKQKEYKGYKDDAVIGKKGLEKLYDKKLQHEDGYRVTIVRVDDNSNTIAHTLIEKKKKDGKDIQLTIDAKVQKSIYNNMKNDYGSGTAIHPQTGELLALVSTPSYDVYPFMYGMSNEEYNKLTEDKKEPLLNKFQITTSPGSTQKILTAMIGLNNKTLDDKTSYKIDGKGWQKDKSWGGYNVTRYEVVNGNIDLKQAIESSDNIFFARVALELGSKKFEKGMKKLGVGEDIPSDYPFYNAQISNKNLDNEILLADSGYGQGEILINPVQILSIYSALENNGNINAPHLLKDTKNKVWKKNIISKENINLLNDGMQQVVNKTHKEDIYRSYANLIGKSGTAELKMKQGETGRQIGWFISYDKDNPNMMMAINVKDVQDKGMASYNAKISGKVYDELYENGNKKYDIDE
assay-metric: IC50 (µM)
Numbers only here, please. The scale is µM.

Exam item: Enter recorded IC50 with PBP2a (Staphylococcus aureus, UniProt P07944) for N#Cc1ccc(/C=C/c2nc3ccccc3c(=O)n2-c2cccc(C(=O)O)c2)cc1 here.
Marked response: 356

---

test: Pharmacokinetics after single iv or po dose; type: in vivo, mice; details: mouse, plasma, iv, 10 mg/kg
assay-metric: clearance (mL/min/kg)
API: value field is a number in mL/min/kg; no unit string.

Exam item: Supply recorded clearance for N#Cc1ccc(/C=C/c2nc3ccccc3c(=O)n2-c2cccc(C(=O)O)c2)cc1 [compound 2] here.
Marked response: 6.87

---

test: Metabolic stability in rat S9; assay type: in vitro ADME; settings: liver S9
assay-metric: remaining at 1 h

Exam item: Please indicate remaining at 1 h recorded for N#Cc1ccc(/C=C/c2nc3ccccc3c(=O)n2-c2cccc(C(=O)O)c2)cc1
Marked response: 100%

---

test: Hemolysis of red blood cells; assay type: cell-based
assay-metric: hemolysis at 50 μg/mL

Exam item: Fill in reported hemolysis at 50 μg/mL for this entry: N#Cc1ccc(/C=C/c2nc3ccccc3c(=O)n2-c2cccc(C(=O)O)c2)cc1 [compound 2]
Marked response: < 1%

---

test system: S. aureus NRS70; experiment: MIC, in vitro antibacterial activity; assay type: cell-based; details: Staphylococcus aureus, MRSA|NRS70
Catalogue of MIC values
Response body: numeric value in µg/mL, unit text excluded.

Exam item: Give recorded MIC. CN[C@H](CC(C)C)C(=O)N[C@H]1C(=O)N[C@@H](CC(N)=O)C(=O)N[C@H]2C(=O)N[C@H]3C(=O)N[C@H](C(=O)N[C@H](C(=O)O)c4cc(O)cc(O)c4-c4cc3ccc4O)[C@H](O)c3ccc(c(Cl)c3)Oc3cc2cc(c3O[C@@H]2O[C@H](CO)[C@@H](O)[C@H](O)[C@H]2O[C@H]2C[C@](C)(N)[C@H](O)[C@H](C)O2)Oc2ccc(cc2Cl)[C@H]1O
Marked response: 1

Exam item: Given Cc1onc(-c2ccccc2)c1C(=O)N[C@@H]1C(=O)N2[C@@H]1SC(C)(C)[C@@H]2C(=O)O , respond with its MIC.
Marked response: 32

Exam item: Give MIC for the following compound: N#Cc1ccc(/C=C/c2nc3ccccc3c(=O)n2-c2cccc(C(=O)O)c2)cc1
Marked response: 2

Exam item: # return recorded MIC for input CC(=O)NC[C@H]1CN(c2ccc(N3CCOCC3)c(F)c2)C(=O)O1
Marked response: 1

---

experiment: Pharmacokinetics after single iv or po dose; type: in vivo, mice; conditions: mouse, plasma, po, 10 mg/kg
assay-metric: half-life

Exam item: Please list half-life recorded for the molecule N#Cc1ccc(/C=C/c2nc3ccccc3c(=O)n2-c2cccc(C(=O)O)c2)cc1
Marked response: > 1200 min

---

system: S. aureus VRS2
assay-metric: MIC (µg/mL)
Number in µg/mL, nothing else.

Reference set (3 entries):
smiles-code	value-measured
CN[C@H](CC(C)C)C(=O)N[C@H]1C(=O)N[C@@H](CC(N)=O)C(=O)N[C@H]2C(=O)N[C@H]3C(=O)N[C@H](C(=O)N[C@H](C(=O)O)c4cc(O)cc(O)c4-c4cc3ccc4O)[C@H](O)c3ccc(c(Cl)c3)Oc3cc2cc(c3O[C@@H]2O[C@H](CO)[C@@H](O)[C@H](O)[C@H]2O[C@H]2C[C@](C)(N)[C@H](O)[C@H](C)O2)Oc2ccc(cc2Cl)[C@H]1O	64
Cc1onc(-c2ccccc2)c1C(=O)N[C@@H]1C(=O)N2[C@@H]1SC(C)(C)[C@@H]2C(=O)O	256
CC(=O)NC[C@H]1CN(c2ccc(N3CCOCC3)c(F)c2)C(=O)O1	2

// moving on: another record for MIC
Exam item: Tell me MIC reported for N#Cc1ccc(/C=C/c2nc3ccccc3c(=O)n2-c2cccc(C(=O)O)c2)cc1
Marked response: 2

---

experiment: Metabolic stability in human S9; type: in vitro ADME; settings: liver S9
assay-metric: remaining at 1 h (%)
Give the quantity in %, number only.

Exam item: Write down remaining at 1 h measured for item N#Cc1ccc(/C=C/c2nc3ccccc3c(=O)n2-c2cccc(C(=O)O)c2)cc1
Marked response: 100

---

test: Pharmacokinetics after single iv or po dose; assay type: in vivo, mice; conditions: mouse, plasma, iv, 10 mg/kg
assay-metric: half-life

Exam item: Read off the recorded half-life for N#Cc1ccc(/C=C/c2nc3ccccc3c(=O)n2-c2cccc(C(=O)O)c2)cc1 [compound 2]
Marked response: > 20 h
